conditions: 298.2 K; 101.33 kPa; Liquid; Vibrating tube method
The entries below are paired with their reported mass density.
METRIC: mass density (kg/m3)

| COMPOUND STRING | METRIC | EXPERIMENTAL RESULT |
| --- | --- | --- |
| CC(C)CCO | mass density | 809.05 |
| CCCCO | mass density | 805.6 |
| CCCC(=O)O | mass density | 952.68 |
| CCCCCO | mass density | 810.92 |

---

The entries below are paired with their reported refractive index.
experiment: refractive index (Na D-line) (dimensionless); settings: 298.2 K; 101.33 kPa; Liquid; Standard Abbe refractometry
METRIC: refractive index

| COMPOUND STRING | EXPERIMENTAL RESULT |
| --- | --- |
| CCCCO | 1.3968 |
| O | 1.3325 |
| CC(C)CCO | 1.4085 |
| CCCCCO | 1.4073 |
| CCCC(=O)O | 1.3977 |
